- test target: Human CD73 (Homo sapiens)
- Construct: purchased R&D Systems; host or cells: CHO cells
- test name: CD73 Enzyme Assay
- Format: biochemical
value kind: IC50

> print(dat)
                                        mol  value.kind  result
1  CCOP(=O)(O)COC[C@H]1O[C@@H](n2cnc3c(NCc4ccccc4)ncnc32)[C@H](O)[C@@H]1O        IC50  > 1 µM
2  O=P(O)(COC[C@H]1O[C@@H](n2ccc3c(NC4CCCC4)nc(Cl)nc32)[C@H](O)[C@@H]1O)Oc1ccc(F)cc1        IC50  > 1 µM
3  CCOP(=O)(COC[C@H]1O[C@@H](n2ccc3c(NC4CCCC4)nc(Cl)nc32)[C@H](O)[C@@H]1O)OCC        IC50  > 1 µM
4  O=P(COC[C@H]1O[C@@H](n2ccc3c(NC4CCCC4)nc(Cl)nc32)[C@H](O)[C@@H]1O)(Oc1ccccc1)Oc1ccccc1        IC50  > 1 µM
5  O=P(COC[C@H]1O[C@@H](n2ccc3c(NC4CCCC4)nc(Cl)nc32)[C@H](O)[C@@H]1O)(Oc1ccc(F)cc1)Oc1ccc(F)cc1        IC50  > 1 µM

Kindly review the next compound as well.
Measured on Human CD73 (Homo sapiens), `O=P(O)(COC[C@H]1O[C@@H](n2ccc3c(NC4CCCC4)nc(Cl)nc32)[C@H](O)[C@@H]1O)Oc1cccnc1` has a documented IC50 of < 0.01 µM

---

- test target: CD73 on U138 human neuroglioma cells (Homo sapiens)
- Construct: U138 cells were obtained from ATCC and cultured in DMEM with 10% FBS; host or cells: U138 human neuroglioma cells
- Sequence (P21589 27-549): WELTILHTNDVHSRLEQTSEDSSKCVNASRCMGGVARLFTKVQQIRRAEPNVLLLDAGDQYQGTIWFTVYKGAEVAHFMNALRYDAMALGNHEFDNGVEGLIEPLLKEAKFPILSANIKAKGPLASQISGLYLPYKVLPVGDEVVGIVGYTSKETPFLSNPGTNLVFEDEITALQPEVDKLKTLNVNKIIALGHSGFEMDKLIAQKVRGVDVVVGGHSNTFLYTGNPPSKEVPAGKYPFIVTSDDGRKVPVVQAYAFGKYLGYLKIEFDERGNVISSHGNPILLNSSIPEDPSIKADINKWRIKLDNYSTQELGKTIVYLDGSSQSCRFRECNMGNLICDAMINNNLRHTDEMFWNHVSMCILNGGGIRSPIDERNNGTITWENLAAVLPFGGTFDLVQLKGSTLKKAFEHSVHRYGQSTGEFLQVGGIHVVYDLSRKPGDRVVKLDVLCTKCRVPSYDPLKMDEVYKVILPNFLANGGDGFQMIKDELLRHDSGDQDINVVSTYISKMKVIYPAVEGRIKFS
- test name: CD73 Cell-Based Assay
- protocol conditions: U138 cells, AMP substrate, 2 hours at 37° C., inorganic phosphate by malachite green
value kind: IC50

Use these answered entries as a reference point.
> print(dat)
                                   molecule   result
1  Cc1ccc([C@H](C)Nc2nc(Cl)nc3c2ccn3[C@@H]2O[C@H](CS(=O)(=O)CP(=O)(O)O)[C@@H](O)[C@H]2O)cc1 [Compound 170]  < 10 nM
2  CC(C)C#Cc1nc(NC2CCCC2)c2ccn([C@@H]3O[C@H](COCP(=O)(O)O)[C@@H](O)[C@H]3O)c2n1 [Compound 253]  < 10 nM

Kindly review the next molecule as well.
C[C@H](Nc1nc(C#N)nc2c1ccn2[C@@H]1O[C@H](COCP(=O)(O)O)[C@@H](O)[C@H]1O)c1ccc(C2CC2)cc1 [Compound 204] yielded IC50 of < 10 nM

---

- test target: CD73 on U138 human neuroglioma cells (Homo sapiens)
- Construct: U138 cells were obtained from ATCC and cultured in DMEM with 10% FBS; host or cells: U138 human neuroglioma cells
- Sequence (P21589 27-549): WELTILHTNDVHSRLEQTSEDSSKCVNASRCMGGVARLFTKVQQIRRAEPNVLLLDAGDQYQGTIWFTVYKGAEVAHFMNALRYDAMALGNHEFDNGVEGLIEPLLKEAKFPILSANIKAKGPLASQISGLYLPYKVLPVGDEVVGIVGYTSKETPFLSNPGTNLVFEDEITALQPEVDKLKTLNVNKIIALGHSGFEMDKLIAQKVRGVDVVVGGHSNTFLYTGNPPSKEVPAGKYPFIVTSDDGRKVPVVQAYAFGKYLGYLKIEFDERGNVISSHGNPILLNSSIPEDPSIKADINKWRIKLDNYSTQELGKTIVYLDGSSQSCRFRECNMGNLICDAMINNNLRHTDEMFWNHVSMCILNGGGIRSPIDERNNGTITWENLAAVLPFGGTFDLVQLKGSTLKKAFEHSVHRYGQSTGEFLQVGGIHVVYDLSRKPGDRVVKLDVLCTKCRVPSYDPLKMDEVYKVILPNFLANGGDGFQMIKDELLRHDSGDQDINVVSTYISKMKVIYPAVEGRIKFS
- test name: CD73 Cell-Based Assay
- protocol conditions: U138 cells, AMP substrate, 2 hours at 37° C., inorganic phosphate by malachite green
- Experimental: U138 human neuroglioma cells were used in these experiments. U138 cells were obtained from ATCC and cultured in DMEM with 10% FBS. 2500 cells were seeded into 96-well plate with 100 μL of media the day before the experiment. […] 50 μL of supernatant was transferred to a 96-well assay plate and the concentration of inorganic phosphate was determined using malachite green reagent (R&D System; Cat: DY996).
value kind: IC50

Use these answered entries as a reference point.
> print(dat)
                                    compound        result
 1  O=P(O)(O)COC[C@H]1O[C@@H](n2ncc3c(NC4CC(F)(F)C4)nc(Cl)nc32)[C@H](O)[C@@H]1O       < 10 nM
 2  O=P(O)(O)CS(=O)(=O)C[C@H]1O[C@@H](n2ccc3c(NC4CCC(F)(F)CC4)nc(Cl)nc32)[C@H](O)[C@@H]1O       < 10 nM
 3  O=P(O)(O)CS(=O)(=O)C[C@H]1O[C@@H](n2ccc3c(NC4CC(F)(F)C4)nc(Cl)nc32)[C@H](O)[C@@H]1O       < 10 nM
 4  O=P(O)(O)COC[C@H]1O[C@@H](n2ccc3c(NC4CCCC4)nc(C(F)(F)F)nc32)[C@H](O)[C@@H]1O  10 to 100 nM
 5  O=P(O)(O)CS(=O)(=O)C[C@H]1O[C@@H](n2ccc3c(N4CC5CCCC5C4)nc(Cl)nc32)[C@H](O)[C@@H]1O (stereo partly shown)       < 10 nM
 6  O=P(O)(O)COC[C@H]1O[C@@H](n2cnc3c(OC4CCCC4)ncnc32)[C@H](O)[C@@H]1O     > 1000 nM
 7  O=P(O)(COC[C@H]1O[C@@H](n2ccc3c(NC4CCCC4)nc(Cl)nc32)[C@H](O)[C@@H]1O)OCC(F)(F)F  10 to 100 nM
 8  O=P(O)(O)CS(=O)(=O)C[C@H]1O[C@@H](n2ccc3c(N4CCC(F)(F)C4)nc(Cl)nc32)[C@H](O)[C@@H]1O       < 10 nM
 9  O=P(O)(O)COC[C@H]1O[C@@H](c2csc3c(NC4CCCC4)nc(Cl)nc23)[C@H](O)[C@@H]1O  10 to 100 nM
10  O=P(O)(O)COC[C@H]1O[C@@H](n2ccc3c(-c4ccccc4)nc(Cl)nc32)[C@H](O)[C@@H]1O  10 to 100 nM

`Cc1ccc([C@H](C)Nc2nc(C#N)nc3c2ccn3[C@@H]2O[C@H](COCP(=O)(O)O)[C@@H](O)[C@H]2O)cc1` yielded IC50 of < 10 nM

`C#Cc1nc(NC2CCCC2)c2ccn([C@@H]3O[C@H](COCP(=O)(O)O)[C@@H](O)[C@H]3O)c2n1` yielded IC50 of < 10 nM

`O=P(O)(O)CS(=O)(=O)C[C@H]1O[C@@H](n2ccc3c(NC4CCCC4)nc(C(F)F)nc32)[C@H](O)[C@@H]1O` yielded IC50 of < 10 nM

---

- test target: Human CD73 (Homo sapiens)
- Construct: purchased R&D Systems; host or cells: CHO cells
- test name: CD73 Enzyme Assay
- Format: biochemical
- protocol conditions: 0.25 nM hCD73, 25 μM AMP, kinetic read at 360 nm; read-out: CD73 Enzyme Assay IC50
pIC50: −log10 of the molar value.
Listing of recorded pIC50 by entry.

Use these answered entries as a reference point.
molecule	test target	result
O=P(O)(O)COC[C@H]1O[C@@H](n2ccc3c(N4CCC[C@@H]4CO)nc(Cl)nc32)[C@H](O)[C@@H]1O	Human CD73 (Homo sapiens)	7.00 to 8.00
C[C@@H](Nc1nc(Cl)nc2c1ccn2[C@@H]1O[C@H](COCP(=O)(O)O)[C@@H](O)[C@H]1O)c1ccc(F)cn1	Human CD73 (Homo sapiens)	6.00 to 7.00
CC(C)(C)C(=O)OCOP(=O)(COC[C@H]1O[C@@H](n2ccc3c(N4CC5CCCC5C4)nc(Cl)nc32)[C@H](O)[C@@H]1O)OCOC(=O)C(C)(C)C (some centres unmarked)	Human CD73 (Homo sapiens)	6.00 to 7.00

Kindly review the next molecule as well.
`C[C@@H](O)COc1nc(NC2CCCC2)c2ccn([C@@H]3O[C@H](COCP(=O)(O)O)[C@@H](O)[C@H]3O)c2n1` yielded pIC50 of > 8.00
